- Assay Target: PARP2 FL E286R (human (Homo sapiens), UniProt Q9UGN5 1-583, E286R)
- Sequence (Q9UGN5 whole entry E286R): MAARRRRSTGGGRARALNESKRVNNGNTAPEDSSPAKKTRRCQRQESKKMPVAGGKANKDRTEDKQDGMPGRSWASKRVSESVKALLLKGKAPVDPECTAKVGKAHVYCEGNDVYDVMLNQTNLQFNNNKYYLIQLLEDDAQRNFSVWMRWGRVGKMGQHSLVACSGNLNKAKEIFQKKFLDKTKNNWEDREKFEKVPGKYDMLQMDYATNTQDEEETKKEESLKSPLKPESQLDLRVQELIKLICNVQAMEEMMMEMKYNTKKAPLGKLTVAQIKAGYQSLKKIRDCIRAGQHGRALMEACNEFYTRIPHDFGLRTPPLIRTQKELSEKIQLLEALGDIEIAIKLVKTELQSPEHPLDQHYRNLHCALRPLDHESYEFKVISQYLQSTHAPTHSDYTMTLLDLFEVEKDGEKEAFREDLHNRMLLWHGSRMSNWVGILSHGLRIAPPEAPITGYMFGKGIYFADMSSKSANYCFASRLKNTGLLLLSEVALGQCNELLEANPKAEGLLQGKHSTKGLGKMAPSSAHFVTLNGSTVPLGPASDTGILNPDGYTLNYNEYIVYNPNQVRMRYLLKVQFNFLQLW
- Assay Method Text: fluorescence polarization; mean and SD of 3 listed KDs (18.12, 7.571, 5.497); FP buffer, salt, pH and temperature not given (as in cited ref 17); crystallization: complex purified in 20 mM Hepes pH 7.5, 300 mM NaCl, 0.5 mM TCEP; crystals
- Conditions Used: protein: recombinant; tags: His-tag construct, TEV cleaved; label: fluorescein on internal T10; dumbbell of two hairpins (TTTT loops) with one nick
Observable: Kd (nM)
Report as a plain number; the unit nM is understood.

Given the entry GGAAGTCTTTTGACTTCCTCGAAGCTTTTGCTTCGA (structured_DNA, 5'-phosphate) [DNA-8 nicked dumbbell] , report its measured Kd.
10.4
